tested on: K4 kissing-loop RNA reporter; assay: apparent KD of K4 kissing-loop reporter; higher = weaker reporter binding; details: Eterna round: R107; input ligand: tryptophan 2.4 mM;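 note: bound reporter read as fluorescence of individual clusters on recovered sequencing chips by microscopy, with normalized cluster intensities fitted with a binding model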
Decide by apparent KD of K4 kissing-loop reporter: equal to or exceeding 100 nM means true (1), less means false (0).

State whether the measured apparent KD of K4 kissing-loop reporter reaches 100 nM, counting equality as reaching it, for AGGAUGUAGUGAUGUUAUAUAAGAAGUAAACGAGGACCGGUACGGCCGCCACUCGAAGCGGCUACUAGCGCGCCGCGAGGCGCGC [ExTryptoA.Cb]
true (1)

More entries:
Given the entry CCAGCGGGCACGGCCGCCACUCUCUCGAGUGAUGUUUGCGGAGUCAGGCCGGCUCAGUACGUCACGAGGACCGGGUGCAAUUUAC [theeternabot_exclusion_KL_Trp_B_40] , answer whether its apparent KD of K4 kissing-loop reporter meets or surpasses 100 nM.
true (1)

Data provenance is the supplement of paper PMC9170038.
